- method_summary: Antiproliferative activity against human H4 cells after 48 hrs by MTT assay
- Assay type: functional, cell-based
- reported_conditions: H4, 48 h
assay_readout: pIC50
The meaning of pIC50 here: minus log10 of the concentration in molar units.

**Query** Which pIC50 value belongs to "Cc1cc(=O)c(O)cc2c1C[C@H]1CC(C)(C)/C=C/C[C@]3(C)Oc4cc(O)c(=O)cc(C)c4C[C@H]3C[C@H](O)[C@@]1(C)O2" ?
**Result** 6.89

Where these numbers come from: ChEMBL document CHEMBL3758071
